# measuredTarget: Insulin-degrading enzyme (Mus musculus)
# Sequence (Q9JHR7 whole entry): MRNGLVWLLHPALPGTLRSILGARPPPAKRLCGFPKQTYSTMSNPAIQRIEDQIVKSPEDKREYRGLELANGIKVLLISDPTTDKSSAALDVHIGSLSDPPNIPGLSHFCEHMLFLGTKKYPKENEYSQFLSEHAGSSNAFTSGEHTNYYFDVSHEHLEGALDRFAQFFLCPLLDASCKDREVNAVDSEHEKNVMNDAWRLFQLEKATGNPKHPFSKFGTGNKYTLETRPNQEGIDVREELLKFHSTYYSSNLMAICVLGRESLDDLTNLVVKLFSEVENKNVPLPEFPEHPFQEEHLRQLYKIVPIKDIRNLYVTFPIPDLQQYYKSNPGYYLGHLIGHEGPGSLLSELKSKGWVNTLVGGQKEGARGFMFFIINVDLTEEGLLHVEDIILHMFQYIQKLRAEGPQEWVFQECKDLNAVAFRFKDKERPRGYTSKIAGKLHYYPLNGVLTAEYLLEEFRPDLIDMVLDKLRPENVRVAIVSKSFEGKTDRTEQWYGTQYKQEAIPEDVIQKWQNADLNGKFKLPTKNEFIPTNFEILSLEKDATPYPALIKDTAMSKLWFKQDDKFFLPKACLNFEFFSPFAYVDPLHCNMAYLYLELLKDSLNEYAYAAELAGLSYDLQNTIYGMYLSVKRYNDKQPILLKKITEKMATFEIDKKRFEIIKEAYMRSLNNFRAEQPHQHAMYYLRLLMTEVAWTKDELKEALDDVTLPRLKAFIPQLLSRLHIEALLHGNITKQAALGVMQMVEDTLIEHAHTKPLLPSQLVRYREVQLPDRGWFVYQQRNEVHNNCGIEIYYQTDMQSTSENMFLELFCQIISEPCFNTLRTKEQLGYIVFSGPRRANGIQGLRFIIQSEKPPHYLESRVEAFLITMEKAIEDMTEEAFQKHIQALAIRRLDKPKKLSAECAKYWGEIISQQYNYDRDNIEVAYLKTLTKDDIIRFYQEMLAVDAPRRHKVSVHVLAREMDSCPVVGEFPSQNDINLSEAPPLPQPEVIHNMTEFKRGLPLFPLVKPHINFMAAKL
# assayNotes: Inhibition of mouse His-tagged IDE (42 to 1019 residues) using fluorophore/quencher-tagged RPPGFSAFK(Dnp)-OH peptide as substrate preincubated for 10 mins followed by substrate addition measured over 5 mins by TR-FRET assay
Bridge positions count the residues as written; N and C are the ends. Square brackets hold non-standard residues; d marks the D form. Peptide text beside a SMILES is read from it. * marks the point of attachment. Ileψ(thiazoline)Cys = CC[C@H](C)[C@H](N)C1=N[C@H](C(=O)*)CS1; dOrn = NCCC[C@@H](N)C(=O)O
valueType: IC50

A selection of reference data follows.
>  <compound>
CC[C@H](C)[C@H](N)C1=N[C@H](C(=O)N[C@@H](CC(C)C)C(=O)N[C@H](CCC(=O)O)C(=O)N[C@H](C(=O)N[C@H]2CCCCNC(=O)[C@H](CC(N)=O)NC(=O)[C@@H](CC(=O)O)NC(=O)[C@H](Cc3cnc[nH]3)NC(=O)[C@@H](Cc3ccccc3)NC(=O)[C@H]([C@@H](C)CC)NC(=O)[C@@H](CCCN)NC2=O)[C@@H](C)CC)CS1 [BACITRACIN] ({Ileψ(thiazoline)Cys}-L[dE]IK[dOrn]I[dF]H[dD]N; lactam 4-C)

>  <IC50>
> 200 µM

$$$$
>  <compound>
CC(C)C[C@H](NC(=O)[C@@H]1CSC[C@H](NC(=O)[C@H](Cc2ccccc2)NC(=O)[C@H](CCCNC(=N)N)NC(=O)[C@H](Cc2c[nH]c3ccccc23)NC(=O)[C@@H](N)CCC(=O)O)C(=O)NCC(=O)NCC(=O)NCC(=O)N2CCC[C@@H]2C(=O)N2CCC[C@H]2C(=O)N[C@@H](CCC(=O)O)C(=O)N1)C(=O)N[C@@H](Cc1ccc(O)cc1)C(=O)N[C@@H](CC(C)C)C(=O)N[C@H](C(=O)N[C@H](CS)C(=O)NCC(N)=O)C(C)C

>  <IC50>
0.077 µM

$$$$
>  <compound>
CC(C)C[C@H](NC(=O)[C@@H]1CSC[C@H](NC(=O)[C@H](Cc2ccccc2)NC(=O)[C@H](CCCNC(=N)N)NC(=O)[C@H](Cc2c[nH]c3ccccc23)NC(=O)[C@@H](N)CCC(=O)O)C(=O)NCC(=O)N2CCC[C@@H]2C(=O)N2CCC[C@H]2C(=O)N[C@@H](CCC(=O)O)C(=O)N1)C(=O)N[C@@H](Cc1ccc(O)cc1)C(=O)N[C@@H](CC(C)C)C(=O)N[C@H](C(=O)N[C@H](CS)C(=O)NCC(N)=O)C(C)C

>  <IC50>
0.06 µM

$$$$

Here is the next item to consider.
Entry `CC(C)C[C@H](NC(=O)[C@H](C)NC(=O)[C@H](CCC(=O)O)NC(=O)[C@@H]1CCCN1C(=O)[C@H]1CCCN1C(=O)[C@H](Cc1ccccc1)NC(=O)[C@@H](N)CCCNC(=N)N)C(=O)N[C@@H](Cc1ccc(O)cc1)C(=O)N[C@@H](CC(C)C)C(=O)N[C@H](C(N)=O)C(C)C` ; IC50 = > 20 µM

###

# measuredTarget: Insulin-degrading enzyme (Mus musculus)
# Sequence (Q9JHR7 whole entry): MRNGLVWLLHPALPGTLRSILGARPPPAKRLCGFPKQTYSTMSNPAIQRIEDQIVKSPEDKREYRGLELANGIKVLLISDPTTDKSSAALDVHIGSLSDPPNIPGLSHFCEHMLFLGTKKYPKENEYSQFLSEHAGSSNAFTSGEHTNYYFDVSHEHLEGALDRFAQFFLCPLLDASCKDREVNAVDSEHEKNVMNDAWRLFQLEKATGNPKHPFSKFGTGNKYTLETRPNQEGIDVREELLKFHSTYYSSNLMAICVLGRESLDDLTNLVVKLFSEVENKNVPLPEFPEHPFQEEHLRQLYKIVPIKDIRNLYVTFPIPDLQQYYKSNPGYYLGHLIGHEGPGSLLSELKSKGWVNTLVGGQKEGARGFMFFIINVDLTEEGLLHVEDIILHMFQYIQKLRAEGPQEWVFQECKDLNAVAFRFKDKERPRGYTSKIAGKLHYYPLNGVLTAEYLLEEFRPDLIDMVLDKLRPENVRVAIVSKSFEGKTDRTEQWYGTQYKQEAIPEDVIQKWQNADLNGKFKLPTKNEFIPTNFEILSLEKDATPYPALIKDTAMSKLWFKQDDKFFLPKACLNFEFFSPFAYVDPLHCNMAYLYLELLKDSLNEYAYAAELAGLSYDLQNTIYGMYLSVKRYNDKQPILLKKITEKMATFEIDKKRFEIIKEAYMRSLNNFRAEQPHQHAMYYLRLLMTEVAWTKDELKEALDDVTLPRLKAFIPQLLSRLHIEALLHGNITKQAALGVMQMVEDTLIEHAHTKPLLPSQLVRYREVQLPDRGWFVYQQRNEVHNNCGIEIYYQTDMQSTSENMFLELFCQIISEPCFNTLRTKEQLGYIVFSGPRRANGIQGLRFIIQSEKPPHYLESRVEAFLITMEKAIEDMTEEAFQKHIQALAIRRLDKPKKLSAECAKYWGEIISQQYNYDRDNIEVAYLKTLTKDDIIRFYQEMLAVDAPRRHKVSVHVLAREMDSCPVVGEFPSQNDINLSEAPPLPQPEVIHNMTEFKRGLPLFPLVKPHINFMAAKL
# assayNotes: Inhibition of mouse His-tagged IDE (42 to 1019 residues) using fluorophore/quencher-tagged RPPGFSAFK(Dnp)-OH peptide as substrate preincubated for 10 mins followed by substrate addition measured over 5 mins by TR-FRET assay
pIC50 by entry:
Convention used: pIC50 is expressed as -log10 of the molar concentration.

>  <inputSmiles>
CC(C)C[C@H](NC(=O)[C@@H]1CNC(=O)C[C@H](NC(=O)[C@H](Cc2ccccc2)NC(=O)[C@H](CCCNC(=N)N)NC(=O)[C@H](Cc2c[nH]c3ccccc23)NC(=O)[C@@H](N)CCC(=O)O)C(=O)NCC(=O)NCC(=O)NCC(=O)N2CCC[C@@H]2C(=O)N2CCC[C@H]2C(=O)N[C@@H](CCC(=O)O)C(=O)N1)C(=O)N[C@@H](Cc1ccc(O)cc1)C(=O)N[C@@H](CC(C)C)C(=O)N[C@H](C(=O)N[C@@H](CS)C(=O)NCC(N)=O)C(C)C

>  <measuredTarget>
Insulin-degrading enzyme (Mus musculus)

>  <valueType>
pIC50

>  <observedMeasurement>
7.36

$$$$

Here is the next item to consider.
Entry `CC(C)C[C@H](NC(=O)[C@H](C)NC(=O)[C@H](CCC(=O)O)NC(=O)[C@@H]1CCCN1C(=O)[C@H]1CCCN1C(=O)[C@H](Cc1ccccc1)NC(=O)[C@H](CCCNC(=N)N)NC(=O)[C@H](Cc1c[nH]c2ccccc12)NC(=O)[C@@H](N)CCC(=O)O)C(=O)N[C@@H](Cc1ccc(O)cc1)C(=O)N[C@@H](CC(C)C)C(=O)N[C@H](C(N)=O)C(C)C` ; pIC50 = 7.07
